- target: IGF1R (Homo sapiens)
- Sequence (P08069 31-1367): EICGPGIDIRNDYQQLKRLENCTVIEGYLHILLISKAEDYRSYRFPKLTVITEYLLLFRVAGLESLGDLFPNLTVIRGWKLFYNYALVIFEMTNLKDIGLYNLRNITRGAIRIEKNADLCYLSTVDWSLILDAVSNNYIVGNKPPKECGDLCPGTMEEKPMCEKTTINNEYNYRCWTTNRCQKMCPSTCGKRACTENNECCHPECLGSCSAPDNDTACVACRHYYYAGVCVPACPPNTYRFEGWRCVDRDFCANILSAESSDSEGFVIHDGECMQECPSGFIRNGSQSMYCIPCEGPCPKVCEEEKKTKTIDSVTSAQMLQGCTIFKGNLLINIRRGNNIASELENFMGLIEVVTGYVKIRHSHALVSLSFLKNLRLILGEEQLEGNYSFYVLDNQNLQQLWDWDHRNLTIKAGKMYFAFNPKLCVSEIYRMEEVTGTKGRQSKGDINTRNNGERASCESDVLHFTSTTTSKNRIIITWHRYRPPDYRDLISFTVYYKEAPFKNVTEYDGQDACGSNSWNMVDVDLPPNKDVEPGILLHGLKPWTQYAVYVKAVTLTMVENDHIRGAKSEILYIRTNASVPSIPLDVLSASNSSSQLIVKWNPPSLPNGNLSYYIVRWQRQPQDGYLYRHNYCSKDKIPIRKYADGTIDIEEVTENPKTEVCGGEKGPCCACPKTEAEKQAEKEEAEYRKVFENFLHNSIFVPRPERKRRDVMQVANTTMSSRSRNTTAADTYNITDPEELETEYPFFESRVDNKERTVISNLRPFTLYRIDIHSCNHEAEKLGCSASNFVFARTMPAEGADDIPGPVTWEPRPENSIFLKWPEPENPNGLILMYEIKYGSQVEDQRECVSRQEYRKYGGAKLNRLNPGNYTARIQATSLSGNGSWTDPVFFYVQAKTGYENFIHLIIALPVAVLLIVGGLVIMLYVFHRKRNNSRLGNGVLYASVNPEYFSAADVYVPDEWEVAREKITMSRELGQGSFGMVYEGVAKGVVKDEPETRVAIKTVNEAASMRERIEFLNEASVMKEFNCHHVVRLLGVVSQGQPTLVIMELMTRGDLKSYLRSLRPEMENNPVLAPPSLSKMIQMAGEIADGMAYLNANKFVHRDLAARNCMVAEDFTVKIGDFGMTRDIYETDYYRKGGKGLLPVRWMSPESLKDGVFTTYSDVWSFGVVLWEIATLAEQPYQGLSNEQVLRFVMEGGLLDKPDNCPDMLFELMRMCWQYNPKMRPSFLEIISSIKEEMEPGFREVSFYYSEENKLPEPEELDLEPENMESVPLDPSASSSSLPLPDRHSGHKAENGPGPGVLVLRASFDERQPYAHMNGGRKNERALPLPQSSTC
- test-protocol: ADP-Glo kinase inhibition assay, IGF1R
measured-quantity: IC50

Some compounds with recorded IC50:
> print(dat)
                                   compound  measured.quantity  observed.value
1  COc1ccc(Nc2nc(-c3ccc4c(CN5CC(O)C5)cn(CO)c4c3)cn3ccnc23)cc1OC [Compound S970D]               IC50          > 5 µM
2  Cc1cc(Nc2ncnc3ccc(NC4=NC(C)(C)CO4)cc23)ccc1Oc1ccn2ncnc2c1               IC50        > 100 µM
3  Cn1cc(-c2cc3c(N4CCN(c5ncc([C@@](C)(N)c6ccc(F)cc6)cn5)CC4)ncnn3c2)cn1               IC50        > 100 µM
4  COc1ccc(Nc2nc(-c3ccc4c(CN5CC(N)C5)c[nH]c4c3)cnc2C(N)=O)cc1OC               IC50         > 20 µM
5  CCn1c(=O)c(-c2cc(NC(=O)Nc3ccccc3)c(F)cc2Br)cc2cnc(NC)cc21               IC50        > 100 µM
6  O=C(Nc1cnn2ccc(N3CCC[C@@H]3c3cc(F)ccc3F)nc12)N1CC[C@H](O)C1               IC50        > 100 µM

Request body: readout IC50, system IGF1R (Homo sapiens), query `COc1ccc(Nc2nc(-c3ccc4c(CCCO)cn(C)c4c3)cnc2C(N)=O)cc1OC` . Return the value.
> 10 µM

Just for reference, patent US20250186432A1 is where these values come from.
